- study system: Carbonic anhydrase 9 (Homo sapiens)
- protocol text: Inhibition of recombinant human carbonic anhydrase 9 after 15 mins by stopped flow CO2 hydration assay
readout label: pKi
Answer as the number alone; pKi is minus log10 of concentration in mol/L.

Query pKi for CCCN(CCC)S(=O)(=O)c1ccc(C(=O)NC2CCCCC2)cc1
6.63

Query pKi for CCCN(CCC)S(=O)(=O)c1ccc(C(=O)NC)cc1
6.78

Query pKi for CCCN(CCC)S(=O)(=O)c1ccc(C(=O)O)cc1
6.44

Query pKi for CCCN(CCC)S(=O)(=O)c1ccc(C(=O)NCCN2CCOCC2)cc1
6.60

Query pKi for CCCN(CCC)S(=O)(=O)c1ccc(C(=O)Nc2cccc(Cl)c2)cc1
6.70

Query pKi for CCCN(CCC)S(=O)(=O)c1ccc(C(=O)Nc2cccc([N+](=O)[O-])c2)cc1
6.58

###

- study system: UniProt O43570
- Sequence (O43570 whole entry): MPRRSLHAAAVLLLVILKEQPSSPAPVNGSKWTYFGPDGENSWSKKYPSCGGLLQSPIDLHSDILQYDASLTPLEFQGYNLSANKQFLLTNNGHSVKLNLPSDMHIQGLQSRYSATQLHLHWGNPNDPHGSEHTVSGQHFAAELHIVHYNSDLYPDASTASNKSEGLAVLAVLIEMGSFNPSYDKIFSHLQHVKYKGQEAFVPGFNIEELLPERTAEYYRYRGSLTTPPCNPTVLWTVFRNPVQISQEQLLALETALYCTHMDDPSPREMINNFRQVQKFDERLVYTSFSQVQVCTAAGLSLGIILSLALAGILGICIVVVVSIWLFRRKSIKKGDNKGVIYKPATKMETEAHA
- protocol text: Inhibition of recombinant human carbonic anhydrase 12 after 15 mins by stopped flow CO2 hydration assay
readout label: pKi
Answer as the number alone; pKi is minus log10 of concentration in mol/L.

Query pKi for CCCN(CCC)S(=O)(=O)c1ccc(C(=O)O)cc1
5.90

The origin of these recorded values is ChEMBL document CHEMBL3352763.
